Target Under Test: human recombinant PD-1 protein (human, UniProt Q15116)
Sequence (Q15116 25-170): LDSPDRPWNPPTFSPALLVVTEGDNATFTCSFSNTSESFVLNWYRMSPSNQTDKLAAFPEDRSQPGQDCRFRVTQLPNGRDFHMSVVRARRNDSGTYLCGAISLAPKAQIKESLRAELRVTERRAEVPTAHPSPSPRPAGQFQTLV
Test Summary: SPR
pKd: −log10 of the molar value.

Binder	pKd
SRLKEIANSPTQFWRMVARNTLGNGAKQSLNIEHARL [nABP284]	4.93

Origin of the recorded values: paper PMC9016318
